# experimental.system: T1, recombinant human soluble gpNMB (recombinant human gpNMB-FLAG-His) (human, UniProt Q14956 23-498)
# T1 sequence: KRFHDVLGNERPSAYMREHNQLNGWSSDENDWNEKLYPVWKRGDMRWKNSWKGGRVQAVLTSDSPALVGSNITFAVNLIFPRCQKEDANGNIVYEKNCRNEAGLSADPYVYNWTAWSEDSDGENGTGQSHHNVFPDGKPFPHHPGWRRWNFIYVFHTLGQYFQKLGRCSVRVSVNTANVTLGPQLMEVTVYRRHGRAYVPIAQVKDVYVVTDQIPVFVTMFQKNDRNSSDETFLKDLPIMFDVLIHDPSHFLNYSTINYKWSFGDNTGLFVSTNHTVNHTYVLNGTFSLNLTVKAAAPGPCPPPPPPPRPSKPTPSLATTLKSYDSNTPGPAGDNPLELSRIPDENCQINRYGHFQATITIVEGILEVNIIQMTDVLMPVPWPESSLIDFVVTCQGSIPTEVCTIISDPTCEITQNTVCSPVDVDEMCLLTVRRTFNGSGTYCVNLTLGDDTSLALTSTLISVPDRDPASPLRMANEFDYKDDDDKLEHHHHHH
# protocol.notes: antigen ELISA
Please go through the items and note down their EC50.
One number for each entry, in nM.

Respectfully, I request EC50 for each entry included below.
1. hGPN18-2_H2L3 VL K55A (antibody, V domains shown) VH: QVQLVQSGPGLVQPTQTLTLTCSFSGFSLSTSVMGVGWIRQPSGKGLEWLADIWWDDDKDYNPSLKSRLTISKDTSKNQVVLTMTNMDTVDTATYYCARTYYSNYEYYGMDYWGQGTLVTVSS VL: DIVMTQSPDSLAVSLGERATINCRSSQTIILSNGNTYLEWYQQKPGQPPKLLIYAVSNRFSGVPDRFSGSGSGTDFTLTISSLQAEDVAVYYCFQGSHVPFTFGSGTKLEIKR
2. hGPN18-2_H2L3 VL Q95A (antibody, V domains shown) VH: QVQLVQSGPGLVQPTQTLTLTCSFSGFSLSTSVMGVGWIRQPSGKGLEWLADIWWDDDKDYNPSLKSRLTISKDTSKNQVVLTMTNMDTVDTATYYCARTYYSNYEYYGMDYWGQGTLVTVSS VL: DIVMTQSPDSLAVSLGERATINCRSSQTIILSNGNTYLEWYQQKPGQPPKLLIYKVSNRFSGVPDRFSGSGSGTDFTLTISSLQAEDVAVYYCFAGSHVPFTFGSGTKLEIKR
3. hGPN18-2_H2L3 VL I30A (antibody, V domains shown) VH: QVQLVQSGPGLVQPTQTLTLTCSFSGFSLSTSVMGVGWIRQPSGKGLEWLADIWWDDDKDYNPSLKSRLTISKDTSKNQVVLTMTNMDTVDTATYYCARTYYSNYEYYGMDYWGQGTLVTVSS VL: DIVMTQSPDSLAVSLGERATINCRSSQTIALSNGNTYLEWYQQKPGQPPKLLIYKVSNRFSGVPDRFSGSGSGTDFTLTISSLQAEDVAVYYCFQGSHVPFTFGSGTKLEIKR

Result:
48.3
5.49
4.1

Reference source: patent EP4772193A1
